meta.source: paper PMC7725824

Test system: 4T1
Test details: Cytotoxicity assay (MTT), 4T1
Assay type: cell-based, mouse
Assay conditions: breast cancer cell line; MTT, 48 h; mean ± S.D., 3 experiments; read-out: Cytotoxicity, IC50, 4T1
Measured metric: IC50 (µM)
// return numeric value only (unit: µM, not printed)

In plain terms, O=[Se](O)O [Na2SeO3, Sodium selenite, reference compound] has a documented IC50 of 4.9

* * *

IC50 at 48 h for assorted compounds
Test details: Cytotoxicity assay (MTT), H9C2
Type: cell-based, rat
Assay conditions: rat, H9C2 cells (cardiomyoblasts); normal cell line; MTT, 48 h; mean ± S.D., 3 experiments
Only the number, expressed in µM, is required.

Example compounds with recorded IC50 at 48 h:
OC1(c2[se][n+]3ccccc3c2Br)CCCCC1.[Cl-] : 2.2
Cc1cc[n+]2[se]c(C3(O)CCCCC3)c(Br)c2c1 : 2.9
OC1(c2[se][n+]3ccccc3c2Br)CCCCCC1.[Br-] : 9.3

Notebook: `OC(c1ccccc1)(c1ccccc1)c1[se][n+]2ccccc2c1Br` , IC50 at 48 h read as 4.2

Data point: COc1cccc2c1C(=O)c1c(O)c3c(c(O)c1C2=O)C[C@@](O)(C(=O)CO)C[C@@H]3O[C@H]1C[C@H](N)[C@H](O)[C@H](C)O1 [Doxorubicin, reference compound] ; IC50 at 48 h = 11

IC50 at 48 h reading for `OC1(c2[se][n+]3ccsc3c2Br)CCCCC1` : 3.7

* * *

Tested on: MDCK
Test details: Cytotoxicity assay (MTT), MDCK
Assay type: cell-based, Canine
Assay conditions: normal cell line, 48 h, mean ± S.D., 3 experiments
Measured metric: IC50 (µM)
The answer is to be given in µM; state only the numeric part.

// recorded IC50 for O=[Se](O)O [Na2SeO3, Sodium selenite, reference compound] : 6.3

* * *

Test details: Cytotoxicity assay (MTT), HEKa
Format: cell-based, human
Assay conditions: human, HEKa cells (primary epidermal keratinocytes), normal cell line, mean ± S.D., 3 experiments
Source text: MCF-7 (human breast adenocarcinoma, estrogen-positive) and 4T1 (mouse carcinoma), as breast cancer cell lines, and H9C2 (rat cardiomyoblasts), NIH 3T3 (mouse fibroblasts), HEKa (primary human epidermal keratinocytes), MDCK (Madin-Darby Canine Kidney) cells, and A7r5 (rat vascular smooth muscle cells), as normal cell lines, were obtained from the American Type Culture Collection [ATCC] collection for use in the current study. […]
Measured metric: IC50 at 48 h (nM)
Numbers only; they are read as nM.

According to the records, this molecule `Cc1cc[n+]2[se]c(C3(O)CCCCC3)c(Br)c2c1` displays IC50 at 48 h of 2050

IC50 at 48 h measured on `OC(c1ccccc1)(c1ccccc1)c1[se][n+]2ccccc2c1Br` = 2780

# IC50 at 48 h of `OC1(c2[se][n+]3ccsc3c2Br)CCCCC1` = 2840

For reference, reported IC50 at 48 h for `OC1(c2[se][n+]3ccccc3c2Br)CCCCC1.[Cl-]` stands at 2210

IC50 at 48 h reading for `OC1(c2[se][n+]3ccccc3c2Br)CCCCCC1.[Br-]` : 2010

* * *

Test details: Cytotoxicity assay (MTT), 3T3
Assay type: cell-based, mouse
Assay conditions: mouse, normal cell line, mean ± S.D., 3 experiments
Measured metric: IC50 at 48 h (nM)
Your answer is read as nM, so omit the unit and give the number.

Form field IC50 at 48 h, entry `Cn1cc[n+]2[se]c(C3(O)CCCCC3)c(Br)c12` : 2200

* * *

Test details: Cytotoxicity assay (MTT), 3T3
Type: cell-based, mouse
Assay conditions: mouse, NIH 3T3 cells (fibroblasts), normal cell line, mean ± S.D., 3 experiments
Measured metric: IC50 at 48 h (nM)
Give a bare numeral; the unit nM is implied.

OC1(c2[se][n+]3ccsc3c2Br)CCCCC1 : 7400
OC1(c2[se][n+]3ccccc3c2Br)CCCCC1.[Cl-] : 390
OC1(c2[se][n+]3ccccc3c2Br)CCCCCC1.[Br-] : 980
COc1cccc2c1C(=O)c1c(O)c3c(c(O)c1C2=O)C[C@@](O)(C(=O)CO)C[C@@H]3O[C@H]1C[C@H](N)[C@H](O)[C@H](C)O1 [Doxorubicin, reference compound] : 750
OC(c1ccccc1)(c1ccccc1)c1[se][n+]2ccccc2c1Br : 1600

Please turn your attention to the following entry.
Reported IC50 at 48 h of `Cc1cc[n+]2[se]c(C3(O)CCCCC3)c(Br)c2c1` : 790

* * *

Tested on: NIH 3T3
Test details: Cytotoxicity assay (MTT), 3T3
Format: cell-based, mouse
Assay conditions: normal cell line, 48 h, mean ± S.D., 3 experiments
Measured metric: IC50 (µM)
Give just the number in µM; leave the unit off.

Fill in: NIH 3T3 IC50 for O=[Se](O)O [Na2SeO3, Sodium selenite, reference compound] = 22.3

* * *

Test details: Cytotoxicity assay (MTT), H9C2
Format: cell-based, rat
Assay conditions: rat; normal cell line; MTT, 48 h; mean ± S.D., 3 experiments
Measured metric: IC50 at 48 h (nM)
Write the number in nM without appending the unit.

// recorded IC50 at 48 h for `Cn1cc[n+]2[se]c(C3(O)CCCCC3)c(Br)c12` : 670

* * *

Let's look at some compounds and their measured IC50 at 48 h.
Test details: Cytotoxicity assay (MTT), A7r5
Assay type: cell-based, rat
Assay conditions: rat, A7r5 cells (vascular smooth muscle cells), normal cell line, mean ± S.D., 3 experiments
Hi! Could you send only the number? It should be in µM, unit omitted.

OC1(c2[se][n+]3ccccc3c2Br)CCCCCC1.[Br-] : 1.92

Measured IC50 at 48 h, `OC1(c2[se][n+]3ccccc3c2Br)CCCCC1.[Cl-]` : 1.85

Short answer for `Cc1cc[n+]2[se]c(C3(O)CCCCC3)c(Br)c2c1` : IC50 at 48 h was 1.93

The compound listed as `OC(c1ccccc1)(c1ccccc1)c1[se][n+]2ccccc2c1Br` shows IC50 at 48 h equal to 1.87

Looking up COc1cccc2c1C(=O)c1c(O)c3c(c(O)c1C2=O)C[C@@](O)(C(=O)CO)C[C@@H]3O[C@H]1C[C@H](N)[C@H](O)[C@H](C)O1 [Doxorubicin, reference compound] , I see its IC50 at 48 h listed as 1.82

compound `OC1(c2[se][n+]3ccsc3c2Br)CCCCC1` , IC50 at 48 h observed: 1.97

* * *

Tested on: 4T1
Test details: Cytotoxicity assay (MTT), 4T1
Assay type: cell-based, mouse
Assay conditions: Mus musculus, 4T1; breast cancer cell line; MTT, 48 h; mean ± S.D., 3 experiments; read-out: Cytotoxicity, IC50, 4T1
Reported values of IC50 for individual entries
Give the quantity in nM, number only.

Below, 5 compounds whose answers are already recorded.
OC1(c2[se][n+]3ccccc3c2Br)CCCCCC1.[Br-] : 410
OC1(c2[se][n+]3ccccc3c2Br)CCCCC1.[Cl-] : 44
COc1cccc2c1C(=O)c1c(O)c3c(c(O)c1C2=O)C[C@@](O)(C(=O)CO)C[C@@H]3O[C@H]1C[C@H](N)[C@H](O)[C@H](C)O1 [Doxorubicin, reference compound] : 160
OC(c1ccccc1)(c1ccccc1)c1[se][n+]2ccccc2c1Br : 1100
Cc1cc[n+]2[se]c(C3(O)CCCCC3)c(Br)c2c1 : 450

Proceeding to the next compound to report its IC50.
Record `OC1(c2[se][n+]3ccsc3c2Br)CCCCC1` , field IC50: 1700

* * *

System: A7r5
Test details: Cytotoxicity assay (MTT), A7r5
Format: cell-based, rat
Assay conditions: normal cell line, 48 h, mean ± S.D., 3 experiments
Measured metric: IC50
Answer format: number, then unit.

The value of IC50 measured for the molecule O=[Se](O)O [Na2SeO3, Sodium selenite, reference compound] turned out to be 39.4 µM

* * *

Tested on: MCF-7
Test details: Cytotoxicity assay (MTT), MCF-7
Type: cell-based, human
Assay conditions: breast cancer cell line; MTT, 48 h; mean ± S.D., 3 experiments; read-out: Cytotoxicity, IC50, MCF-7
Measured metric: IC50 (µM)
Supply the numeric figure in µM, leaving out any unit text.

For O=[Se](O)O [Na2SeO3, Sodium selenite, reference compound] the compound record lists IC50 as 17.1

* * *

Test details: Cytotoxicity assay (MTT), MDCK
Format: cell-based, Canine
Assay conditions: dog, normal cell line, mean ± S.D., 3 experiments
Measured metric: IC50 at 48 h
State the value, then name its unit.

Reported IC50 at 48 h ( `Cn1cc[n+]2[se]c(C3(O)CCCCC3)c(Br)c12` ) = 4.28 µM

* * *

Test system: HEKa
Test details: Cytotoxicity assay (MTT), HEKa
Type: cell-based, human
Assay conditions: normal cell line, 48 h, mean ± S.D., 3 experiments
Excerpt: MCF-7 (human breast adenocarcinoma, estrogen-positive) and 4T1 (mouse carcinoma), as breast cancer cell lines, and H9C2 (rat cardiomyoblasts), NIH 3T3 (mouse fibroblasts), HEKa (primary human epidermal keratinocytes), MDCK (Madin-Darby Canine Kidney) cells, and A7r5 (rat vascular smooth muscle cells), as normal cell lines, were obtained from the American Type Culture Collection [ATCC] collection for use in the current study. […]
Measured metric: IC50 (µM)
The answer is to be given in µM; state only the numeric part.

Looking up O=[Se](O)O [Na2SeO3, Sodium selenite, reference compound] , I see its IC50 listed as 13.3
